B1: HDV Ribozyme (parent)
chain: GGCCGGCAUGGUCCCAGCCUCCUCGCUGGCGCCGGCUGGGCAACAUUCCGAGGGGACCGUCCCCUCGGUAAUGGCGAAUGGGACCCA

- Variants of: B1
- Protocol: self-cleavage, relative activity (ratio to wild type); higher = more cleavage; co-transcriptional
self-cleavage listing for selected variants.
Lab note: record the figure alone, no unit after it.

Measured self-cleavage of C18A A56G : 0.162

The variant listed as G28A G52C has a reported self-cleavage of 0.0773

What the record says about C3U G6U : self-cleavage is 0.0934

self-cleavage recorded for this variant, G31C U72A , is 0.166

The variant G29A U79C showed self-cleavage equal to 0.113

New cases:
// self-cleavage lookup, variant = G31A G55C , result: 0.475

Record summary for C75G C86U : reported self-cleavage = 0.156

Consider G73U C75A . Its measured self-cleavage is 0.107

Sure, the documented self-cleavage for C24U A83U is 0.198

self-cleavage reported for this variant A42U A78U : 0.284

According to the records, this variant G73C C85U displays self-cleavage of 0.415

Per the records, this variant ( G11C G73A ) has self-cleavage equal to 0.0936

Consider U47A C66U . Its measured self-cleavage is 1.17

// recorded self-cleavage for G52U G59U : 0.984

Measured self-cleavage, C13U G39U : 0.495

Short answer for G81A C85A : self-cleavage was 0.35

Record A8U A42G , field self-cleavage: 0.111
